molecular target: GR (Homo sapiens (Human)); assay: GR antagonist assay (GRE-LUC luciferase, transfected COS-7 cells, with 0.1 nM dexamethasone); assay type: cell-based; conditions: COS-7, read-out: GR Antagonism % inhibition at 10 μM
Sequence (P04150 whole entry): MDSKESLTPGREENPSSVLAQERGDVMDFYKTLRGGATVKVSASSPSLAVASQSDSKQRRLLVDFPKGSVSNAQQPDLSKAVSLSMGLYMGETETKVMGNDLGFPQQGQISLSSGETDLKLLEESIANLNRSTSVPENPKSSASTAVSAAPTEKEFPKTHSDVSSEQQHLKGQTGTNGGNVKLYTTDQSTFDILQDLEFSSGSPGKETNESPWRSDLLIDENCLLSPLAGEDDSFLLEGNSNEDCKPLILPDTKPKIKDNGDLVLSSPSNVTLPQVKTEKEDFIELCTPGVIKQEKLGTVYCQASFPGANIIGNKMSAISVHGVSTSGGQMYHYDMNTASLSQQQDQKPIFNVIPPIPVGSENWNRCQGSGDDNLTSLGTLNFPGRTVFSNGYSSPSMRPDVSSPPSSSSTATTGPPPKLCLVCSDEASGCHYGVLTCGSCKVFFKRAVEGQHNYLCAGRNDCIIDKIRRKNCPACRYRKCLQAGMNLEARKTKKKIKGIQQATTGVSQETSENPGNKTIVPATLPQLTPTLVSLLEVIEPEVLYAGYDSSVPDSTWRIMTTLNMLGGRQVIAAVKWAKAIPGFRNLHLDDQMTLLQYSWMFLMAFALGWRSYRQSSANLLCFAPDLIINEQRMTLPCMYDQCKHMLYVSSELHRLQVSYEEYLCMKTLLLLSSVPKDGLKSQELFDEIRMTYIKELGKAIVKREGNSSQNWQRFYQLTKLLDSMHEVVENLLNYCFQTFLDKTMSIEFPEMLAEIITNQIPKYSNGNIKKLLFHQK
Assign satisfied to entries whose inhibition at 10 µM meets or exceeds 50%; assign not satisfied to the rest.

Query: Item CC1(C)C(=O)N(c2ccc(C#N)c(C(F)(F)F)c2)C(=S)N1c1ccc(CNC(=O)c2ccncn2)c(F)c1 [Compound 14] with inhibition at 10 µM of 50% or above?
Response: not satisfied

Query: Next compound up: Cc1cccnc1C(=O)NCc1ccc(N2C(=S)N(c3ccc(C#N)c(C(F)(F)F)c3)C(=O)C2(C)C)cc1F [Compound 40]
Response: not satisfied

Query: Next compound up: Cc1ccccc1C(=O)NCc1ccc(N2C(=S)N(c3ccc(C#N)c(C(F)(F)F)c3)C(=O)C2(C)C)cc1F [Compound 43]
Response: not satisfied

Query: Next compound up: CC1(C)C(=O)N(c2ccc(C#N)c(C(F)(F)F)c2)C(=S)N1c1ccc(CNC(=O)c2ccccc2F)c(F)c1 [Compound 47]
Response: not satisfied

Query: Next compound up: CC1(C)C(=O)N(c2ccc(C#N)c(C(F)(F)F)c2)C(=S)N1c1ccc(CNC(=O)c2cocn2)c(F)c1 [Compound 54]
Response: satisfied

Query: Next compound up: CN1CC(C(=O)NCc2ccc(N3C(=S)N(c4ccc(C#N)c(C(F)(F)F)c4)C(=O)C3(C)C)cc2F)C1 [Compound 63]
Response: not satisfied

Query: Next compound up: Cc1ncsc1C(=O)NCc1ncc(N2C(=S)N(c3ccc(C#N)c(C(F)(F)F)c3)C(=O)C2(C)C)cc1F [Compound 55]
Response: satisfied
